# Measured Target: TSLP, Q969D9
# Protocol: Kd (SPR)
// pKd lookup, one value per entry
A value of pKd is the negative decimal logarithm of a concentration given in moles per litre.

Below are worked cases with known answers.
# Binder, Observable, Observed
measured = [
    ("unnamed (protein) chain 1: QMQLVESGGGVVQPGRSLRLSCAASGFTFSTFAMHWVRQAPGKGLEWVAVIWYDGSNKHYADSVKGRFTITRDNSKNTLNLQMNSLRAEDTAVYYCARAPRYYEYYEAFDVWGQGTMVTVSS chain 2: SYVLTQPPSVSVAPGQTARITCGGNNLGSKSVHWYQQKPGQAPVLVVYDDSDRPSWIPERFSGSNSGNTATLTISRGEAGDEADYYCQVWDSSSDHVVFGGGTKLTVL", "pKd", 6.97),
    ("unnamed (protein) chain 1: QMQLVESGGGVVQPGRSLRLSCAASGFTFSTFAMHWVRQAPGKGLEWVAVIWYDGSNKHYADSVKGRFTITRDNSKNTLNLQMNSLRAEDTAVYYCARSPRYDDYLEAFDVWGQGTMVTVSS chain 2: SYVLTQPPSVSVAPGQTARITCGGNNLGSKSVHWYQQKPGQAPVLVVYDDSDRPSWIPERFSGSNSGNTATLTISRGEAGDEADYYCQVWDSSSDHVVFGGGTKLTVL", "pKd", 7.09),
]

Next up:
Qu. # pKd lookup, item unnamed (protein) chain 1: QMQLVESGGGVVQPGRSLRLSCAASGFTFRTYGMHWVRQAPGKGLEWVAVIWYDGSNKHYADSVKGRFTITRDNSKNTLNLQMNSLRAEDTAVYYCARAPRYDDRYEAFDVWGQGTMVTVSS chain 2: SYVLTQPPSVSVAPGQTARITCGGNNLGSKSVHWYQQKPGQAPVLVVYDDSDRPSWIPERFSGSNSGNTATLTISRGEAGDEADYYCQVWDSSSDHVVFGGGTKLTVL
Ans. 6.62
